Method notes: Caco-2 cell bi-directional transport assay
Format: in vitro ADME
Protocol conditions: human, Caco-2; read-out: Caco-2 Papp B/A
Property name: Papp
Don't forget the unit after the value.

Suppose we examine the compound Cc1ccc(C2=Nc3cccnc3S(=O)(=O)c3ccccc32)cc1 ; what Papp value has been reported?
20.6 ×10⁻⁶ cm/s

----------
Method notes: human liver microsome stability
Assay type: in vitro ADME
Protocol conditions: liver microsomes, read-out: T1/2 in human liver microsome (converted)
Property name: half-life (h)
Numeric only. Scale: h

Suppose we examine the compound Cc1ccc(C2=Nc3cccnc3S(=O)(=O)c3ccccc32)cc1 ; what half-life value has been reported?
5.18

----------
Hi there, I'd appreciate the recorded EC50 for every entry that follows.
Tested on: H460TaxR
Method notes: Cell viability assay (sulforhodamine B)
Assay type: cell-based, human
Protocol conditions: Homo sapiens, H460/TaxR, 72 h, H460TaxR cells
Description: All biological reagents and solvents were obtained from commercial suppliers and used as recommended. […] The cell viability was determined using the sulforhodamine B assay.[64] […] The cell viability was calculated using the following formula: cell viability=Atreatment/Acontrol. The EC50 values were determined using the Sigma Plot 10.0 software package (Systat Software Inc., San Jose, CA, USA).
Numeric only. Scale: nM

Suppose we examine the compound COc1cccc2c1C(=O)c1c(O)c3c(c(O)c1C2=O)C[C@@](O)(C(=O)CO)C[C@@H]3O[C@H]1C[C@H](N)[C@H](O)[C@H](C)O1 ; what EC50 value has been reported?
2050

Suppose we examine the compound CC(=O)O[C@H]1C(=O)[C@@]2(C)[C@H]([C@H](OC(=O)c3ccccc3)[C@]3(O)C[C@H](OC(=O)[C@H](O)[C@@H](NC(=O)c4ccccc4)c4ccccc4)C(C)=C1C3(C)C)[C@]1(OC(C)=O)CO[C@@H]1C[C@@H]2O ; what EC50 value has been reported?
822

----------
Method notes: plasma stability
Type: in vitro ADME
Protocol conditions: human, read-out: T1/2 in human plasma
Property name: half-life

Suppose we examine the compound Cc1ccc(C2=Nc3cccnc3S(=O)(=O)c3ccccc32)cc1 [TBPT] ; what half-life value has been reported?
> 50 h

----------
Method notes: Caco-2 cell bi-directional transport assay
Type: in vitro ADME
Protocol conditions: human, Caco-2; read-out: Caco-2 Papp A/B
Property name: Papp (×10⁻⁶ cm/s)
Numeric only. Scale: ×10⁻⁶ cm/s

Suppose we examine the molecule Cc1ccc(C2=Nc3cccnc3S(=O)(=O)c3ccccc32)cc1 [TBPT] ; what Papp value has been reported?
34.5

----------
Method notes: Caco-2 cell bi-directional transport assay
Type: in vitro ADME
Protocol conditions: human, Caco-2, Caco-2; read-out: Efflux ratio (B2A/A2B)
Property name: efflux ratio

Suppose we examine the compound Cc1ccc(C2=Nc3cccnc3S(=O)(=O)c3ccccc32)cc1 ; what efflux ratio value has been reported?
0.4 to 0.8

----------
Tested on: H460
Method notes: Cell viability assay (sulforhodamine B)
Type: cell-based, human
Protocol conditions: H460 cells, 72 h
Property name: pEC50
Please treat pEC50 as minus the base-10 logarithm of the molar concentration.

Suppose we examine the molecule Cc1ccc(C2=Nc3cccnc3S(=O)(=O)c3ccccc32)cc1 [TBPT] ; what pEC50 value has been reported?
6.35
